- Tested on: HEK-293T
- assay notes: Multiplex assay against HEK293T
- Assay type: toxicity, cell-based
- experimental parameters: human, 12 h, 1 µM, compound concentration 1 uM, replicate 2
Quick rule for you: Population Tubulin-Different-Phenotype (%) at 20% or higher means yes (1), lower means no (0).

[
  {
    "compound": "CCCCC[C@H](O)/C=C/[C@H]1[C@H](O)CC(=O)[C@@H]1CCCCCCC(=O)O [ALPROSTADIL]",
    "target": "HEK-293T",
    "group label": "no (0)"
  },
  {
    "compound": "O=C(O)CCC/C=C\\CC1C(O)CC(O)C1/C=C/C(O)COc1cccc(Cl)c1 (stereo unspecified) [CLOPROSTENOL]",
    "target": "HEK-293T",
    "group label": "yes (1)"
  },
  {
    "compound": "Nc1nc(-c2ccco2)c2cnn(Cc3ccccc3F)c2n1",
    "target": "HEK-293T",
    "group label": "yes (1)"
  },
  {
    "compound": "O=C(NCCNCC(O)COc1ccc(O)cc1)N1CCOCC1.O=C(NCCNCC(O)COc1ccc(O)cc1)N1CCOCC1.O=C(O)/C=C/C(=O)O (stereo unspecified) [XAMOTEROL FUMARATE]",
    "target": "HEK-293T",
    "group label": "yes (1)"
  },
  {
    "compound": "Cc1cc(NC(=O)NCCN2CCC(O)(Cc3ccccc3)CC2)c2ccccc2n1 [PALOSURAN]",
    "target": "HEK-293T",
    "group label": "yes (1)"
  },
  {
    "compound": "COC(c1ccccc1)(c1ccccc1)[C@H](Oc1nc(C)cc(C)n1)C(=O)O [AMBRISENTAN]",
    "target": "HEK-293T",
    "group label": "yes (1)"
  },
  {
    "compound": "Cc1c(Cc2ccc3ccccc3n2)c2cc(F)ccc2n1CC(=O)O [TIMAPIPRANT]",
    "target": "HEK-293T",
    "group label": "no (0)"
  },
  {
    "compound": "Cc1ccc(OCC(O)C(C)NC(C)C)c2c1CCC2.Cl (stereo unspecified)",
    "target": "HEK-293T",
    "group label": "yes (1)"
  },
  {
    "compound": "N[C@](CC1c2ccccc2Oc2ccccc21)(C(=O)O)[C@H]1C[C@@H]1C(=O)O",
    "target": "HEK-293T",
    "group label": "yes (1)"
  },
  {
    "compound": "COc1cc2nc(N3CCN(C(=O)c4ccco4)CC3)nc(N)c2cc1OC.Cl [PRAZOSIN HYDROCHLORIDE]",
    "target": "HEK-293T",
    "group label": "yes (1)"
  },
  {
    "compound": "CC(C)C[C@H](CO)Nc1nc(S[C@@H](C)c2ccccc2)nc2nc(N)sc12 [AZD-8797]",
    "target": "HEK-293T",
    "group label": "yes (1)"
  }
]
